# System under test: MAP3K1 (human) (UniProt Q13233)
# Sequence (Q13233 whole entry, looked up): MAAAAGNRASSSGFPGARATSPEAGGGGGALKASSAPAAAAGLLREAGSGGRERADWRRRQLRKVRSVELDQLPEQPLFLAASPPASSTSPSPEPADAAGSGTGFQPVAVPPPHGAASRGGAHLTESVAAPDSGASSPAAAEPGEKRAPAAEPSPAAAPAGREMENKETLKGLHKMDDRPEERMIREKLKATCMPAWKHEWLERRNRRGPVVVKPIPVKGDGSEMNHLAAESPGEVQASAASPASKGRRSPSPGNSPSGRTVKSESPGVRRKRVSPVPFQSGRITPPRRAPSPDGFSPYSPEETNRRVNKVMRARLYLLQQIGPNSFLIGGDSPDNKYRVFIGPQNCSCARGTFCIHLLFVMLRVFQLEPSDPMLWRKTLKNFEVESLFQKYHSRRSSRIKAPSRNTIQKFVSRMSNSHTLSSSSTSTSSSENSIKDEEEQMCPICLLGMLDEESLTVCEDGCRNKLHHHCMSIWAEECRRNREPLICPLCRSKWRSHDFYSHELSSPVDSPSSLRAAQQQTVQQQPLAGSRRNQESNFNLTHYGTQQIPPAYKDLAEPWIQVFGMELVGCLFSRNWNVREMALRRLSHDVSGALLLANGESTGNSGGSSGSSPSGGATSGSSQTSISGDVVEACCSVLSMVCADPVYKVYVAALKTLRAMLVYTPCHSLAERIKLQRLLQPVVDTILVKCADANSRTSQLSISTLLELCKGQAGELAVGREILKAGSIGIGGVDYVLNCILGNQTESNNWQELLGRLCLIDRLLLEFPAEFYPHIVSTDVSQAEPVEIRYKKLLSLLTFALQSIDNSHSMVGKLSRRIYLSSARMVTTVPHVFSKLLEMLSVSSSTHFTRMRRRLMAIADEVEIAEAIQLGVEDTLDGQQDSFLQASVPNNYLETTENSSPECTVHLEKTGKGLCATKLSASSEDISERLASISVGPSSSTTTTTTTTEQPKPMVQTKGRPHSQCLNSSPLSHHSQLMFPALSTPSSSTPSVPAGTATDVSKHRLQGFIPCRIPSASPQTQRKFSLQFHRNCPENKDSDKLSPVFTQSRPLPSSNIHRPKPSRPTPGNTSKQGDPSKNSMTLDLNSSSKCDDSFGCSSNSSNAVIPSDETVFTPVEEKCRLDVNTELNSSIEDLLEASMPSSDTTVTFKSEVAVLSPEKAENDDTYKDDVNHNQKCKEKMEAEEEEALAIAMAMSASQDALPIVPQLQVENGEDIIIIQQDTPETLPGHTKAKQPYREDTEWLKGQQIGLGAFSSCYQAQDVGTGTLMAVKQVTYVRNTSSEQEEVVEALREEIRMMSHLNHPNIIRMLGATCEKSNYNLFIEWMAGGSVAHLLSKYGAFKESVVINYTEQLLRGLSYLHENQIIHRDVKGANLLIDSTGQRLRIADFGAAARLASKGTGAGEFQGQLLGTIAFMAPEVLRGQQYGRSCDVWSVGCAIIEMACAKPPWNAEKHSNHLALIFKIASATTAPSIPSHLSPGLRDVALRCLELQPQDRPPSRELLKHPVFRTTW
# Procedure details: KINOMEscan competition binding
# Cond: compound 1.0 µM
Assay metric: kinase still bound, per cent of control (%)
Numbers only, in %.

{"Compound string": "Cc1cc(NC(=O)c2cccc(NC(=O)/C=C/CN(C)C)c2)ccc1Nc1nccc(-c2cccnc2)n1", "Value units": "%", "kinase still bound, per cent of control": 100}

Please state kinase still bound, per cent of control for every molecule in the list that follows.
1. CN(C)C/C=C/C(=O)Nc1cccc(C(=O)Nc2ccc(Nc3nccc(-c4cccnc4)n3)cc2)c1
2. CN(C)C/C=C/C(=O)Nc1cccc(C(=O)Nc2ccc(Nc3nccc(-c4c(-c5ccccc5)nn5ccccc45)n3)cc2)c1
3. CN(C)C/C=C/C(=O)Nc1cccc(C(=O)Nc2ccc(Nc3nccc(/C(C#N)=C4\Nc5ccccc5S4)n3)cc2)c1

[reply]
1: 85; 2: 96; 3: 100

###

# System under test: DSTYK (human) (UniProt Q6XUX3)
# Sequence (Q6XUX3 whole entry, looked up): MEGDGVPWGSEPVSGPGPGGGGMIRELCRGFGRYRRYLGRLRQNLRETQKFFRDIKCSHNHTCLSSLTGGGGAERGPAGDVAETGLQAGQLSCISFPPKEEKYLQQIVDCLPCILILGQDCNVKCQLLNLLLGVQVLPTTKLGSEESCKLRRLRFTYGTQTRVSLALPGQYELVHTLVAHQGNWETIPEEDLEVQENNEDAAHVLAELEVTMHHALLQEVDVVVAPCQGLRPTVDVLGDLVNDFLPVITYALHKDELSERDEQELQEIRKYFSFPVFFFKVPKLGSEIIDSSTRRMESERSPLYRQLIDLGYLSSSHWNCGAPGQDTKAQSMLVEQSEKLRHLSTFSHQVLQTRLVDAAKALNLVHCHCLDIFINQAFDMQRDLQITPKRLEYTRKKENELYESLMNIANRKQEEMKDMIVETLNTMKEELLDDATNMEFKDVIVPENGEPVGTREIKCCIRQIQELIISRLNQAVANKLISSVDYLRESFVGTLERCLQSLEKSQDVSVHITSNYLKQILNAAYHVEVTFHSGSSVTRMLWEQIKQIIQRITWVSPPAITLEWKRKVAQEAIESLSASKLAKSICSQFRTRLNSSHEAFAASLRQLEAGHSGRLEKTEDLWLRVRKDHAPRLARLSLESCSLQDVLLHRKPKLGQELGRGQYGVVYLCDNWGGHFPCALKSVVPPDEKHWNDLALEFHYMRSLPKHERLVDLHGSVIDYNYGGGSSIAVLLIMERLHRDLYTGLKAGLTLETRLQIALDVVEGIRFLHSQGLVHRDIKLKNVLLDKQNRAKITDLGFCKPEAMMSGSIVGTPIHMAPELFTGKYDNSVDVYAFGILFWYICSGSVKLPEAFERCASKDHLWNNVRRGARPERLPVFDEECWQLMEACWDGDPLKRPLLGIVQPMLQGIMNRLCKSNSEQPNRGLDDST
# Procedure details: KINOMEscan competition binding
# Cond: compound 1.0 µM
Can you tell me kinase still bound, per cent of control for the items I'm about to list?
Give bare numbers, in %.

Use these answered entries as a reference point.
{"Compound string": "CN(C)C/C=C/C(=O)Nc1cccc(C(=O)Nc2ccc(Nc3nccc(-c4cccnc4)n3)cc2)c1", "Value units": "%", "kinase still bound, per cent of control": 100}
{"Compound string": "Cc1cc(NC(=O)c2cccc(NC(=O)/C=C/CN(C)C)c2)ccc1Nc1nccc(-c2cccnc2)n1", "Value units": "%", "kinase still bound, per cent of control": 100}
{"Compound string": "CN(C)C/C=C/C(=O)Nc1cccc(C(=O)Nc2ccc(Nc3nccc(-c4c(-c5ccccc5)nn5ccccc45)n3)cc2)c1", "Value units": "%", "kinase still bound, per cent of control": 80}

Then there is this molecule:
[ask] Query: kinase still bound, per cent of control; subject: `CN(C)C/C=C/C(=O)Nc1cccc(C(=O)Nc2ccc(Nc3nccc(/C(C#N)=C4\Nc5ccccc5S4)n3)cc2)c1`
[reply] 100

###

# System: FLT3 (human), P36888 [D835H]
# Procedure details: KINOMEscan competition binding
# Cond: compound 1.0 µM
Can you tell me kinase still bound, per cent of control for the items I'm about to list?
Answers are plain numbers, in %.

Use these answered entries as a reference point.
{"Compound string": "CN(C)C/C=C/C(=O)Nc1cccc(C(=O)Nc2ccc(Nc3nccc(-c4c(-c5ccccc5)nn5ccccc45)n3)cc2)c1", "kinase still bound, per cent of control / %": 13}
{"Compound string": "Cc1cc(NC(=O)c2cccc(NC(=O)/C=C/CN(C)C)c2)ccc1Nc1nccc(-c2cccnc2)n1", "kinase still bound, per cent of control / %": 82}
{"Compound string": "CN(C)C/C=C/C(=O)Nc1cccc(C(=O)Nc2ccc(Nc3nccc(-c4cccnc4)n3)cc2)c1", "kinase still bound, per cent of control / %": 29}

Then there is this molecule:
[ask] Query: kinase still bound, per cent of control; subject: `CN(C)C/C=C/C(=O)Nc1cccc(C(=O)Nc2ccc(Nc3nccc(/C(C#N)=C4\Nc5ccccc5S4)n3)cc2)c1`
[reply] 62

###

# System under test: CLK2 (human) (UniProt P49760)
# Sequence (P49760 whole entry, looked up): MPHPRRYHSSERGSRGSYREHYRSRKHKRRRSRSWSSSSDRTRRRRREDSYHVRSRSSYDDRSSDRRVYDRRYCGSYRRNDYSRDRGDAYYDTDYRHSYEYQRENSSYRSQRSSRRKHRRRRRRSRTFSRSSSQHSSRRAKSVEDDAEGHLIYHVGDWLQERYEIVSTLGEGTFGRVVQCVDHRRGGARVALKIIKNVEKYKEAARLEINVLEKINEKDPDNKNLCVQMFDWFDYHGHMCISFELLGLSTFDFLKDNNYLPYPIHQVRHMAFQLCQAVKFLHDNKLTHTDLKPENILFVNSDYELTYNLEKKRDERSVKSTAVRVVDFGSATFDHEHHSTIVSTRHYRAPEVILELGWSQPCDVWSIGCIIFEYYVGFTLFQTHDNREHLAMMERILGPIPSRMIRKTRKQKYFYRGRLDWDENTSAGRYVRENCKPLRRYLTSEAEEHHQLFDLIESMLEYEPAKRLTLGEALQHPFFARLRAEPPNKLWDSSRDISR
Assay metric: IC50 (nM)
Give bare numbers, in nM.

[ask] Query: IC50; subject: `CN(C)C/C=C/C(=O)Nc1cccc(C(=O)Nc2ccc(Nc3nccc(-c4cccnc4)n3)cc2)c1`
[reply] 299

###

# System under test: MAP3K3 (human)
# Procedure details: KINOMEscan competition binding
# Cond: compound 1.0 µM
Can you tell me kinase still bound, per cent of control for the items I'm about to list?
Answers are plain numbers, in %.

Please state kinase still bound, per cent of control for every compound in the list that follows.
1. CN(C)C/C=C/C(=O)Nc1cccc(C(=O)Nc2ccc(Nc3nccc(-c4cccnc4)n3)cc2)c1
2. Cc1cc(NC(=O)c2cccc(NC(=O)/C=C/CN(C)C)c2)ccc1Nc1nccc(-c2cccnc2)n1
3. CN(C)C/C=C/C(=O)Nc1cccc(C(=O)Nc2ccc(Nc3nccc(-c4c(-c5ccccc5)nn5ccccc45)n3)cc2)c1
4. CN(C)C/C=C/C(=O)Nc1cccc(C(=O)Nc2ccc(Nc3nccc(/C(C#N)=C4\Nc5ccccc5S4)n3)cc2)c1

[reply]
1. 77
2. 95
3. 68
4. 100

###

Can you tell me kinase still bound, per cent of control for the items I'm about to list?
# System under test: UniProt:P42681
# Sequence (P42681 whole entry, looked up): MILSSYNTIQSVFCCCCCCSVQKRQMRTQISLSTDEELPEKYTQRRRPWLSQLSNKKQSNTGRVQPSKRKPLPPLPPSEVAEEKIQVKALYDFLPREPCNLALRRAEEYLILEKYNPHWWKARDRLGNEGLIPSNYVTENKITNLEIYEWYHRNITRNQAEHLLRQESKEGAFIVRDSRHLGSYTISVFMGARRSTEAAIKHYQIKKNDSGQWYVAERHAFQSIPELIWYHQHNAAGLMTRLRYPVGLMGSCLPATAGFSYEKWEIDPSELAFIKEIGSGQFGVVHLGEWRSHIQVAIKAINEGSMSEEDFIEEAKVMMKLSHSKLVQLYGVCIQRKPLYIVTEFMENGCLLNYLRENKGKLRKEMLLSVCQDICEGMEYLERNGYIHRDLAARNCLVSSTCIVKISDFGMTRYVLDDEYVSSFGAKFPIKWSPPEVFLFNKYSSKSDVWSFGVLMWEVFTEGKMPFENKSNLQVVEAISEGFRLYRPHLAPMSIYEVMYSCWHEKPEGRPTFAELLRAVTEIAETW
# Procedure details: KINOMEscan competition binding
# Cond: compound 1.0 µM
Give bare numbers, in %.

{"Compound string": "CN(C)C/C=C/C(=O)Nc1cccc(C(=O)Nc2ccc(Nc3nccc(/C(C#N)=C4\\Nc5ccccc5S4)n3)cc2)c1", "kinase still bound, per cent of control (%)": 100}
{"Compound string": "Cc1cc(NC(=O)c2cccc(NC(=O)/C=C/CN(C)C)c2)ccc1Nc1nccc(-c2cccnc2)n1", "kinase still bound, per cent of control (%)": 96}
{"Compound string": "CN(C)C/C=C/C(=O)Nc1cccc(C(=O)Nc2ccc(Nc3nccc(-c4cccnc4)n3)cc2)c1", "kinase still bound, per cent of control (%)": 83}

Then there is this compound:
[ask] Query: kinase still bound, per cent of control; subject: `CN(C)C/C=C/C(=O)Nc1cccc(C(=O)Nc2ccc(Nc3nccc(-c4c(-c5ccccc5)nn5ccccc45)n3)cc2)c1`
[reply] 24

###

Can you tell me kinase still bound, per cent of control for the items I'm about to list?
# System under test: BRSK2 (human)
# Procedure details: KINOMEscan competition binding
# Cond: compound 1.0 µM
Give bare numbers, in %.

{"Compound string": "CN(C)C/C=C/C(=O)Nc1cccc(C(=O)Nc2ccc(Nc3nccc(-c4cccnc4)n3)cc2)c1", "Measurement": 98}
{"Compound string": "Cc1cc(NC(=O)c2cccc(NC(=O)/C=C/CN(C)C)c2)ccc1Nc1nccc(-c2cccnc2)n1", "Measurement": 99}
{"Compound string": "CN(C)C/C=C/C(=O)Nc1cccc(C(=O)Nc2ccc(Nc3nccc(/C(C#N)=C4\\Nc5ccccc5S4)n3)cc2)c1", "Measurement": 100}

Then there is this compound:
[ask] Query: kinase still bound, per cent of control; subject: `CN(C)C/C=C/C(=O)Nc1cccc(C(=O)Nc2ccc(Nc3nccc(-c4c(-c5ccccc5)nn5ccccc45)n3)cc2)c1`
[reply] 100

###

# System under test: ICK (human)
# Procedure details: KINOMEscan competition binding
Assay metric: pKd
Numbers only, as −log10 of the molar value.

[ask] Query: pKd; subject: `CN(C)C/C=C/C(=O)Nc1cccc(C(=O)Nc2ccc(Nc3nccc(-c4cccnc4)n3)cc2)c1`
[reply] 7.27

###

# System under test: JAK2 JH1 JH2 (human)
# Procedure details: radiometric filter-binding kinase assay
Assay metric: pIC50
Answers are plain numbers, as −log10 of the molar value.

[ask] Query: pIC50; subject: `CN(C)C/C=C/C(=O)Nc1cccc(C(=O)Nc2ccc(Nc3nccc(-c4cccnc4)n3)cc2)c1`
[reply] 5.60

###

# System under test: CSNK2A2 (human)
# Procedure details: KINOMEscan competition binding
# Cond: compound 1.0 µM
Can you tell me kinase still bound, per cent of control for the items I'm about to list?
Numbers only, in %.

Please state kinase still bound, per cent of control for every molecule in the list that follows.
1. CN(C)C/C=C/C(=O)Nc1cccc(C(=O)Nc2ccc(Nc3nccc(-c4c(-c5ccccc5)nn5ccccc45)n3)cc2)c1
2. CN(C)C/C=C/C(=O)Nc1cccc(C(=O)Nc2ccc(Nc3nccc(/C(C#N)=C4\Nc5ccccc5S4)n3)cc2)c1
3. Cc1cc(NC(=O)c2cccc(NC(=O)/C=C/CN(C)C)c2)ccc1Nc1nccc(-c2cccnc2)n1
4. CN(C)C/C=C/C(=O)Nc1cccc(C(=O)Nc2ccc(Nc3nccc(-c4cccnc4)n3)cc2)c1

[reply]
[100, 8, 39, 13]

###

# System under test: UniProt:Q99755
# Sequence (Q99755 whole entry, looked up): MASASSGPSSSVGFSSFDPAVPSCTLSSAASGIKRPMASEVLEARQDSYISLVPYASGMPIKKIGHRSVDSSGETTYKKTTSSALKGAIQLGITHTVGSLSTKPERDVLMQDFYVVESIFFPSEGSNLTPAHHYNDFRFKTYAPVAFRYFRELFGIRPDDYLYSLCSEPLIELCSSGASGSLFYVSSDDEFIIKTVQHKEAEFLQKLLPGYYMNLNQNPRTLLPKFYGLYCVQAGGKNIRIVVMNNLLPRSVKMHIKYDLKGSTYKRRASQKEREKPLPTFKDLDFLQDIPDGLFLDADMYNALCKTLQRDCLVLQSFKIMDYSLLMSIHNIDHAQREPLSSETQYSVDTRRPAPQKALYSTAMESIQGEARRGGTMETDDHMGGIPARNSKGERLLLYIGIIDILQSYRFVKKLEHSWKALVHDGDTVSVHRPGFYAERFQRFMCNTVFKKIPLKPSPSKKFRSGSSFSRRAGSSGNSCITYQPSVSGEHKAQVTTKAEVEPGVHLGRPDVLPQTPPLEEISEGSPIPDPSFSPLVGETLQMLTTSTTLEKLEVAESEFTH
# Procedure details: KINOMEscan competition binding
# Cond: compound 1.0 µM
Can you tell me kinase still bound, per cent of control for the items I'm about to list?
Remember to put the unit after the number in your answer.

Please state kinase still bound, per cent of control for every compound in the list that follows.
1. CN(C)C/C=C/C(=O)Nc1cccc(C(=O)Nc2ccc(Nc3nccc(/C(C#N)=C4\Nc5ccccc5S4)n3)cc2)c1
2. CN(C)C/C=C/C(=O)Nc1cccc(C(=O)Nc2ccc(Nc3nccc(-c4c(-c5ccccc5)nn5ccccc45)n3)cc2)c1
3. CN(C)C/C=C/C(=O)Nc1cccc(C(=O)Nc2ccc(Nc3nccc(-c4cccnc4)n3)cc2)c1
4. Cc1cc(NC(=O)c2cccc(NC(=O)/C=C/CN(C)C)c2)ccc1Nc1nccc(-c2cccnc2)n1

[reply]
["39%", "67%", "18%", "75%"]

###

# System under test: SRPK3 (human) (UniProt Q9UPE1)
# Sequence (Q9UPE1 whole entry, looked up): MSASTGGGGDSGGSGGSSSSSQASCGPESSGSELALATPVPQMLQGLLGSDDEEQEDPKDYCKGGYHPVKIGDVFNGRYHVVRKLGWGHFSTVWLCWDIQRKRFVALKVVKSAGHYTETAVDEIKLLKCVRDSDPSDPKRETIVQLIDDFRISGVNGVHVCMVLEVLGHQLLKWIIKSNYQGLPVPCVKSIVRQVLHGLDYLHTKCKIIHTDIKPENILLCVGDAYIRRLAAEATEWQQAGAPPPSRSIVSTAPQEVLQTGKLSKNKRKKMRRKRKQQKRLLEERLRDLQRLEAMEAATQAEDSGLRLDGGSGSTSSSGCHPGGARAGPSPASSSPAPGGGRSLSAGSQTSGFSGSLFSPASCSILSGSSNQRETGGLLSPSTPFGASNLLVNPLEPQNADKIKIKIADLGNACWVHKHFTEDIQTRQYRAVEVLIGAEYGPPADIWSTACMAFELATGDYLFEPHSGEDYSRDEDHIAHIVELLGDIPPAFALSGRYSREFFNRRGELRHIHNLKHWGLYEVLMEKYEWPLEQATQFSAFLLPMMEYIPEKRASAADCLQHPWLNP
# Procedure details: KINOMEscan competition binding
# Cond: compound 1.0 µM
Can you tell me kinase still bound, per cent of control for the items I'm about to list?
Numbers only, in %.

Use these answered entries as a reference point.
{"Compound string": "Cc1cc(NC(=O)c2cccc(NC(=O)/C=C/CN(C)C)c2)ccc1Nc1nccc(-c2cccnc2)n1", "kinase still bound, per cent of control [%]": 70}
{"Compound string": "CN(C)C/C=C/C(=O)Nc1cccc(C(=O)Nc2ccc(Nc3nccc(/C(C#N)=C4\\Nc5ccccc5S4)n3)cc2)c1", "kinase still bound, per cent of control [%]": 82}
{"Compound string": "CN(C)C/C=C/C(=O)Nc1cccc(C(=O)Nc2ccc(Nc3nccc(-c4cccnc4)n3)cc2)c1", "kinase still bound, per cent of control [%]": 28}

Then there is this compound:
[ask] Query: kinase still bound, per cent of control; subject: `CN(C)C/C=C/C(=O)Nc1cccc(C(=O)Nc2ccc(Nc3nccc(-c4c(-c5ccccc5)nn5ccccc45)n3)cc2)c1`
[reply] 100
